Biological target: T1, ferroportin endogenously expressed on T47D cells (HTB 133, ATCC) (human, UniProt Q9NP59 1-571)
T1 sequence (looked up): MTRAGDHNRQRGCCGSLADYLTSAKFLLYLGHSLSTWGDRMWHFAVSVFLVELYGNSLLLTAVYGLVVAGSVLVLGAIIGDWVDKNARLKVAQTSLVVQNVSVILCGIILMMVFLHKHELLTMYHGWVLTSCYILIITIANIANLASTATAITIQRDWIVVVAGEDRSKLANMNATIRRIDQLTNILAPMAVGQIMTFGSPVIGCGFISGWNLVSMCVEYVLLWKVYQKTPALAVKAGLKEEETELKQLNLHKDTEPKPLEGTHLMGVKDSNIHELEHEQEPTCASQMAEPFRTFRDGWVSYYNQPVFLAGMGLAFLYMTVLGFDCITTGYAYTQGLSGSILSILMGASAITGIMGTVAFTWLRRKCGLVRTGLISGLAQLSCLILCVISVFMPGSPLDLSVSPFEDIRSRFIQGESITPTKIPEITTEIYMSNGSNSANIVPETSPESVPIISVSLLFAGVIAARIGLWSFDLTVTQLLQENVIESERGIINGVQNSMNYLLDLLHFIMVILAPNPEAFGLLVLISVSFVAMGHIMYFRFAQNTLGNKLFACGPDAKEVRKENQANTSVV
Experiment: cell-based or functional assay
Positions of bridges follow the written chain, without caps; N, C: chain ends. Non-standard residues stand in square brackets, D forms with d. Groups on a side chain read outwards from the residue. *: point of attachment. C18 diacid = O=C(O)CCCCCCCCCCCCCCCCC(=O)*; Dip = N[C@H](C(=O)O)C(c1ccccc1)c1ccccc1; Palmitoyl = CCCCCCCCCCCCCCCC(=O)*; β3hF = N[C@H](CC(=O)O)Cc1ccccc1; Isovaleryl = CC(C)CC(=O)*; AEEA = NCCOCCOCC(=O)O; Ahx = NCCCCCC(=O)O
Below, each entry is listed with its recorded T47D MSA IC50.

{"binder": "Isovaleryl-ETHFPAIK([AEEA-AEEA-Ahx-C18 diacid])FEPRSKGAK-NH2 [Isovaleric Acid-E-T-H-F-P-A-I-[Lys(1Peg2_1Peg2_Ahx_C18_Diacid)]-F-E-P-R-S-K-G-A-K-NH2]", "T47D MSA IC50 [nM]": 261}
{"binder": "Isovaleryl-ETH[Dip]PAIK[β3hF]K([Ahx-Palmitoyl])-NH2 (lactam 1-8) [Isovaleric Acid-E-T-H-[Dpa]-P-A-I-K-[bhPhe]-[Lys(Ahx_Palm)]-NH2]", "T47D MSA IC50 [nM]": 2.14}
{"binder": "Isovaleryl-ETH[Dip]PAIK([AEEA-AEEA-Ahx-C18 diacid])[β3hF]-NH2 (SMILES CC[C@H](C)[C@H](NC(=O)[C@H](C)NC(=O)[C@@H]1CCCN1C(=O)[C@@H](NC(=O)[C@H](Cc1c[nH]cn1)NC(=O)[C@@H](NC(=O)[C@H](CCC(=O)O)NC(=O)CC(C)C)[C@@H](C)O)C(c1ccccc1)c1ccccc1)C(=O)N[C@@H](CCCCNC(=O)COCCOCCNC(=O)COCCOCCNC(=O)CCCCCNC(=O)CCCCCCCCCCCCCCCCC(=O)O)C(=O)N[C@H](CC(N)=O)Cc1ccccc1) [Isovaleric Acid-E-T-H-[Dpa]-P-A-I-[Lys(1Peg2_1Peg2_Ahx_C18_Diacid)]-[bhPhe]-NH2]", "T47D MSA IC50 [nM]": 143}

Cited source: patent US20240066131A1
